- System: U2OS
- ASSAY OVERVIEW: Multiplex assay against U2OS
- Format: toxicity, cell-based
- MEASUREMENT SETUP: human, 12 h, 10 µM, compound concentration 10 uM, replicate 2

- COMPOUND: "CN(C)CC#Cc1ccc(OCCCc2sc(N3CCc4cccc(C(=O)Nc5nc6ccccc6s5)c4C3)nc2C(=O)O)c(F)c1"
  Population Apoptotic (%): 86
- COMPOUND: "Cc1nc(-c2ccc(-c3ccc(C(=O)N4CCc5cc6c(cc54)C4(CCN(C)CC4)CO6)cc3)c(C)c2)no1"
  Population Apoptotic (%): 63
- COMPOUND: "c1cn2cc(-c3ccc4cn[nH]c4c3)nc(Nc3ccc(N4CCOCC4)cc3)c2n1"
  Population Apoptotic (%): 92
- COMPOUND: "Cc1nc(-c2cn3c(n2)-c2ccc(-c4cnn(C(C)(C)C(N)=O)c4)cc2OCC3)n(C(C)C)n1"
  Population Apoptotic (%): 55
- COMPOUND: "Cc1c(-c2ccc(O)cc2)n(Cc2ccc(OCCN3CCCCCC3)cc2)c2ccc(O)cc12"
  Population Apoptotic (%): 60
- COMPOUND: "CC(C)(O)CNc1ncc(-c2ccnc(Nc3ccnc(Cl)c3)n2)c(CC2CC2)n1"
  Population Apoptotic (%): 15
- COMPOUND: "CN1CCN(c2ccc(OC(F)(F)F)c(Nc3ncc4c(n3)-c3c(c(C(N)=O)nn3CCO)CC4)c2)CC1"
  Population Apoptotic (%): 40
- COMPOUND: "C[C@@H](NCCCc1cccc(C(F)(F)F)c1)c1cccc2ccccc12.Cl [CINACALCET HYDROCHLORIDE]"
  Population Apoptotic (%): 88

###

- Tested on: U2OS
- ASSAY OVERVIEW: Multiplex assay against U2OS
- Assay type: toxicity, cell-based
- MEASUREMENT SETUP: human, 12 h, 1 µM, compound concentration 1 uM, replicate 2
Would you please tag the item yes when its Population Healthy Nuclei (%) is 80% or above, and no when it is below?

- COMPOUND: "CN(C)CC#Cc1ccc(OCCCc2sc(N3CCc4cccc(C(=O)Nc5nc6ccccc6s5)c4C3)nc2C(=O)O)c(F)c1 [A-1155463]"
  CATEGORY LABEL: "no"
- COMPOUND: "Cc1nc(-c2cn3c(n2)-c2ccc(-c4cnn(C(C)(C)C(N)=O)c4)cc2OCC3)n(C(C)C)n1 [TASELISIB]"
  CATEGORY LABEL: "no"
- COMPOUND: "Cc1[nH]c(/C=C2\\C(=O)Nc3ccc(S(=O)(=O)N(C)c4cccc(Cl)c4)cc32)c(C)c1C(=O)N1CCN(C)CC1"
  CATEGORY LABEL: "no"
- COMPOUND: "Cl.N#Cc1ccc2[nH]cc(CCCCN3CCN(c4ccc5oc(C(N)=O)cc5c4)CC3)c2c1 [VILAZODONE HYDROCHLORIDE]"
  CATEGORY LABEL: "no"
- COMPOUND: "Cc1cc(C)cc(-c2cnc3cc(Cl)c(-c4cccc(O)c4)cc3c2OCCCN)c1"
  CATEGORY LABEL: "no"
- COMPOUND: "C=CC(=O)Nc1cc2c(Nc3ccc(F)c(Cl)c3)ncnc2cc1OCCCN1CCOCC1.Cl.Cl [CANERTINIB DIHYDROCHLORIDE]"
  CATEGORY LABEL: "no"
- COMPOUND: "Cn1cc(-c2[nH]c3cc(NC(=O)[C@H](N)C4CCCCC4)cc4c3c2C=NNC4=O)cn1"
  CATEGORY LABEL: "no"
- COMPOUND: "CCN(CC)CCCCNc1ncc2cc(-c3cc(OC)cc(OC)c3)c(NC(=O)NC(C)(C)C)nc2n1 [PD-173074]"
  CATEGORY LABEL: "no"
- COMPOUND: "Cc1csc2c(N[C@@H](C)CN3CCN(S(=O)(=O)c4ccc(Cl)c(Cl)c4)CC3)ncnc12"
  CATEGORY LABEL: "yes"
- COMPOUND: "c1cn2cc(-c3ccc4cn[nH]c4c3)nc(Nc3ccc(N4CCOCC4)cc3)c2n1 [ENTOSPLETINIB]"
  CATEGORY LABEL: "no"
- COMPOUND: "C=CC(=O)Nc1cccc(C(=O)Nc2ccc(Nc3cc(-c4[nH]c(SC)nc4C)ccn3)cc2)c1"
  CATEGORY LABEL: "yes"
- COMPOUND: "CN1CCC[C@@H]1CCO[C@](C)(c1ccccc1)c1ccc(Cl)cc1.O=C(O)/C=C/C(=O)O [CLEMASTINE FUMARATE]"
  CATEGORY LABEL: "no"
- COMPOUND: "O=C1NCN(c2ccccc2)C12CCN(CCCOc1ccc(F)cc1)CC2 [SPIRAMIDE]"
  CATEGORY LABEL: "yes"
- COMPOUND: "CC(C)NCC(O)COc1ccc(CCOCC2CC2)cc1.Cl (stereo not drawn) [BETAXOLOL HYDROCHLORIDE]"
  CATEGORY LABEL: "yes"
- COMPOUND: "CN1CCN(CCOc2cc(OC3CCOCC3)c3c(Nc4c(Cl)ccc5c4OCO5)ncnc3c2)CC1 [SARACATINIB]"
  CATEGORY LABEL: "no"
- COMPOUND: "CN(C)C(=O)/C(C#N)=C/c1ccc(-c2nc3cnc4[nH]ccc4c3n2C2CCCCC2)o1"
  CATEGORY LABEL: "yes"
- COMPOUND: "COc1ncc(-c2ccc3nccc(-c4ccnnc4)c3c2)cc1NS(=O)(=O)c1ccc(F)cc1F [OMIPALISIB]"
  CATEGORY LABEL: "no"
- COMPOUND: "CC[C@H](C)C(=O)O[C@H]1C[C@@H](C)C=C2C=C[C@H](C)[C@H](CC[C@@H]3C[C@@H](O)CC(=O)O3)[C@H]21 [LOVASTATIN]"
  CATEGORY LABEL: "no"
- COMPOUND: "CN1CCCC(n2nc(Cc3ccc(Cl)cc3)c3ccccc3c2=O)CC1.Cl (stereo not drawn) [AZELASTINE HYDROCHLORIDE]"
  CATEGORY LABEL: "yes"
- COMPOUND: "C[C@@]1(C(=O)Nc2ccc(F)nc2)CCCN1c1nc(Nc2cc(C3CC3)n[nH]2)c2cccn2n1 [BMS-754807]"
  CATEGORY LABEL: "no"

###

- Test system: HEK-293T
- ASSAY OVERVIEW: Multiplex assay against HEK293T
- Format: toxicity, cell-based
- MEASUREMENT SETUP: human, 24 h, 1 µM, compound concentration 1 uM, replicate 2
Could you label it yes (1) if measured Population Hoechst High Intensity Objects (%) is 4% or higher, and no (0) otherwise?

- MOLECULE: "Cc1nc(-c2ccc(-c3ccc(C(=O)N4CCc5cc6c(cc54)C4(CCN(C)CC4)CO6)cc3)c(C)c2)no1"
  CATEGORY LABEL: "no (0)"
- MOLECULE: "Cn1cc(-c2[nH]c3cc(NC(=O)[C@H](N)C4CCCCC4)cc4c3c2C=NNC4=O)cn1"
  CATEGORY LABEL: "yes (1)"
- MOLECULE: "CN(C)CC#Cc1ccc(OCCCc2sc(N3CCc4cccc(C(=O)Nc5nc6ccccc6s5)c4C3)nc2C(=O)O)c(F)c1"
  CATEGORY LABEL: "no (0)"
- MOLECULE: "NC(=O)Nc1cc(-c2cccc(F)c2)sc1C(=O)N[C@H]1CCCNC1"
  CATEGORY LABEL: "yes (1)"
- MOLECULE: "Cl.N#Cc1ccc2[nH]cc(CCCCN3CCN(c4ccc5oc(C(N)=O)cc5c4)CC3)c2c1 [VILAZODONE HYDROCHLORIDE]"
  CATEGORY LABEL: "yes (1)"
- MOLECULE: "c1cn2cc(-c3ccc4cn[nH]c4c3)nc(Nc3ccc(N4CCOCC4)cc3)c2n1"
  CATEGORY LABEL: "no (0)"
- MOLECULE: "COc1cccc([C@@H](C)NCCCc2ccccc2Cl)c1.Cl [TECALCET HYDROCHLORIDE]"
  CATEGORY LABEL: "no (0)"
- MOLECULE: "C[C@@]1(C(=O)Nc2ccc(F)nc2)CCCN1c1nc(Nc2cc(C3CC3)n[nH]2)c2cccn2n1"
  CATEGORY LABEL: "yes (1)"
- MOLECULE: "Cc1nc(Nc2n[nH]c3c2CN(C(=O)N[C@H](CN(C)C)c2ccccc2)C3(C)C)c2sccc2n1"
  CATEGORY LABEL: "no (0)"
- MOLECULE: "OC1(c2ccc(Cl)cc2)CCN(Cc2c[nH]c3ccccc23)CC1"
  CATEGORY LABEL: "yes (1)"
- MOLECULE: "CNc1nc(NCc2ccc(NS(C)(=O)=O)cc2Cl)cc(-c2ccccn2)n1"
  CATEGORY LABEL: "yes (1)"
- MOLECULE: "COc1ncc(-c2ccc3nccc(-c4ccnnc4)c3c2)cc1NS(=O)(=O)c1ccc(F)cc1F"
  CATEGORY LABEL: "yes (1)"
- MOLECULE: "O=C1NCN(c2ccccc2)C12CCN(CCCOc1ccc(F)cc1)CC2 [SPIRAMIDE]"
  CATEGORY LABEL: "no (0)"
- MOLECULE: "COc1cc(-n2cnc3cc(-c4ccc(Cl)cc4)sc3c2=O)ccc1OCCN1CCCC1"
  CATEGORY LABEL: "no (0)"
- MOLECULE: "CC[C@H](C)C(=O)O[C@H]1C[C@@H](C)C=C2C=C[C@H](C)[C@H](CC[C@@H]3C[C@@H](O)CC(=O)O3)[C@H]21"
  CATEGORY LABEL: "no (0)"
- MOLECULE: "CN(C)C(=O)N[C@H]1CC[C@H](CCN2CCN(c3cccc(Cl)c3Cl)CC2)CC1.Cl [CARIPRAZINE HYDROCHLORIDE]"
  CATEGORY LABEL: "no (0)"
- MOLECULE: "CC(C)NCC(O)COc1ccc(CCOCC2CC2)cc1.Cl (centres undefined) [BETAXOLOL HYDROCHLORIDE]"
  CATEGORY LABEL: "no (0)"
- MOLECULE: "CCN(CC)CCCCNc1ncc2cc(-c3cc(OC)cc(OC)c3)c(NC(=O)NC(C)(C)C)nc2n1"
  CATEGORY LABEL: "yes (1)"
- MOLECULE: "CN(C)C(=O)/C(C#N)=C/c1ccc(-c2nc3cnc4[nH]ccc4c3n2C2CCCCC2)o1"
  CATEGORY LABEL: "no (0)"
- MOLECULE: "C=CC(=O)Nc1cccc(C(=O)Nc2ccc(Nc3cc(-c4[nH]c(SC)nc4C)ccn3)cc2)c1"
  CATEGORY LABEL: "no (0)"
- MOLECULE: "CN1CCN(c2ccc(OC(F)(F)F)c(Nc3ncc4c(n3)-c3c(c(C(N)=O)nn3CCO)CC4)c2)CC1"
  CATEGORY LABEL: "yes (1)"
- MOLECULE: "C=CC(=O)Nc1ccc2ncnc(Nc3ccc(OCc4cccc(F)c4)c(Cl)c3)c2c1.Cc1ccc(S(=O)(=O)O)cc1"
  CATEGORY LABEL: "no (0)"
- MOLECULE: "Cc1csc2c(N[C@@H](C)CN3CCN(S(=O)(=O)c4ccc(Cl)c(Cl)c4)CC3)ncnc12"
  CATEGORY LABEL: "yes (1)"
- MOLECULE: "CC(C)(O)CNc1ncc(-c2ccnc(Nc3ccnc(Cl)c3)n2)c(CC2CC2)n1"
  CATEGORY LABEL: "yes (1)"
- MOLECULE: "Cc1[nH]c(/C=C2\\C(=O)Nc3ccc(S(=O)(=O)N(C)c4cccc(Cl)c4)cc32)c(C)c1C(=O)N1CCN(C)CC1"
  CATEGORY LABEL: "no (0)"
- MOLECULE: "CN1CCC[C@@H]1CCO[C@](C)(c1ccccc1)c1ccc(Cl)cc1.O=C(O)/C=C/C(=O)O [CLEMASTINE FUMARATE]"
  CATEGORY LABEL: "no (0)"
- MOLECULE: "C=CC(=O)Nc1cc2c(Nc3ccc(F)c(Cl)c3)ncnc2cc1OCCCN1CCOCC1.Cl.Cl [CANERTINIB DIHYDROCHLORIDE]"
  CATEGORY LABEL: "yes (1)"
- MOLECULE: "Nc1c(C(=O)NCc2ccc(C(=O)NCCCC3CCCCC3)cc2)cnn1-c1ccccc1"
  CATEGORY LABEL: "no (0)"
- MOLECULE: "Cc1nc(-c2cn3c(n2)-c2ccc(-c4cnn(C(C)(C)C(N)=O)c4)cc2OCC3)n(C(C)C)n1"
  CATEGORY LABEL: "yes (1)"
- MOLECULE: "CN1CCN(CCOc2cc(OC3CCOCC3)c3c(Nc4c(Cl)ccc5c4OCO5)ncnc3c2)CC1"
  CATEGORY LABEL: "yes (1)"
- MOLECULE: "Cc1cc(C)cc(-c2cnc3cc(Cl)c(-c4cccc(O)c4)cc3c2OCCCN)c1"
  CATEGORY LABEL: "no (0)"
- MOLECULE: "Cc1c(-c2ccc(O)cc2)n(Cc2ccc(OCCN3CCCCCC3)cc2)c2ccc(O)cc12"
  CATEGORY LABEL: "yes (1)"

# credit: ChEMBL document CHEMBL4689842
